EXPERIMENT DESCRIPTION: Index of hydrophobicity (k')
Type: ADME
PROPERTY MEASURED: k'

Study these solved cases before continuing.
{"MOLECULE": "OC[C@H]1OC(n2cnc3c(Nc4ccc(Cl)cc4)ncnc32)[C@H](O)[C@@H]1O (stereo not given in full)", "PROPERTY MEASURED": "k'", "READOUT NUMBER": 4.96}
{"MOLECULE": "OC[C@H]1OC(n2cnc3c(Nc4ccc(F)cc4)ncnc32)[C@H](O)[C@@H]1O (stereo not given in full)", "PROPERTY MEASURED": "k'", "READOUT NUMBER": 1.68}
{"MOLECULE": "CC(Nc1ncnc2c1ncn2C1O[C@H](CO)[C@@H](O)[C@H]1O)c1cccc2ccccc12 (stereo not given in full)", "PROPERTY MEASURED": "k'", "READOUT NUMBER": 6.32}

[I] OC[C@H]1OC(n2cnc3c(NCCc4ccncc4)ncnc32)[C@H](O)[C@@H]1O (stereo not given in full)
[II] OC[C@H]1O[C@@H](n2cnc3c(NCc4cccc(Cl)c4)ncnc32)[C@H](O)[C@@H]1O
[III] COc1ccccc1Nc1ncnc2c1ncn2C1O[C@H](CO)[C@@H](O)[C@H]1O (stereo not given in full)
Ascending by k', please: list the molecules accordingly. Dear reader, please state the labels in the requested order. I, III, II

[P] OC[C@H]1OC(n2cnc3c(NCCc4nc5ccccc5[nH]4)ncnc32)[C@H](O)[C@@H]1O (stereo not given in full)
[Q] OC[C@H]1OC(n2cnc3c(NCc4c(Cl)cccc4Cl)ncnc32)[C@H](O)[C@@H]1O (stereo not given in full)
[R] OC[C@H]1OC(n2cnc3c(NCCc4cccnc4)ncnc32)[C@H](O)[C@@H]1O (stereo not given in full)
[S] COc1ccc(Nc2ncnc3c2ncn3C2O[C@H](CO)[C@@H](O)[C@H]2O)cc1OC (stereo not given in full)
[T] CN(CCc1ccccc1)c1ncnc2c1ncn2C1O[C@H](CO)[C@@H](O)[C@H]1O (stereo not given in full)
Rank items: key k', increasing. Sort and list the labels as requested. R, P, S, T, Q
(R: 0.38, P: 1.45, S: 2.1, T: 3.79, Q: 5.5)

* * *

STUDY TARGET: Adenosine A2 receptor (UniProt P29275+P29274)
REPORTED CONDITIONS: Canis lupus familiaris
Description: Molar potency ratio (MPR) against adenosine A2 receptor of canine coronary artery
PROPERTY MEASURED: MPR

Observe how each entry below is paired with its result.
{"MOLECULE": "COc1ccc(CCNc2ncnc3c2ncn3C2O[C@H](CO)[C@@H](O)[C@H]2O)cc1OC (some centres undefined)", "STUDY TARGET": "Adenosine A2 receptor (UniProt P29275+P29274)", "PROPERTY MEASURED": "MPR", "READOUT NUMBER": 2.7}
{"MOLECULE": "COc1ccccc1CCNc1ncnc2c1ncn2C1O[C@H](CO)[C@@H](O)[C@H]1O (some centres undefined)", "STUDY TARGET": "Adenosine A2 receptor (UniProt P29275+P29274)", "PROPERTY MEASURED": "MPR", "READOUT NUMBER": 1.2}
{"MOLECULE": "OC[C@H]1OC(n2cnc3c(Nc4cccc(Cl)c4)ncnc32)[C@H](O)[C@@H]1O (some centres undefined)", "STUDY TARGET": "Adenosine A2 receptor (UniProt P29275+P29274)", "PROPERTY MEASURED": "MPR", "READOUT NUMBER": 0.2}
{"MOLECULE": "OC[C@H]1OC(n2cnc3c(NCCc4ccc5ccccc5c4)ncnc32)[C@H](O)[C@@H]1O (some centres undefined)", "STUDY TARGET": "Adenosine A2 receptor (UniProt P29275+P29274)", "PROPERTY MEASURED": "MPR", "READOUT NUMBER": 0.12}
{"MOLECULE": "OC[C@H]1OC(n2cnc3c(NCc4cc(Cl)cc(Cl)c4)ncnc32)[C@H](O)[C@@H]1O (some centres undefined)", "STUDY TARGET": "Adenosine A2 receptor (UniProt P29275+P29274)", "PROPERTY MEASURED": "MPR", "READOUT NUMBER": 0.35}
{"MOLECULE": "Cc1ccccc1Nc1ncnc2c1ncn2C1O[C@H](CO)[C@@H](O)[C@H]1O (some centres undefined)", "STUDY TARGET": "Adenosine A2 receptor (UniProt P29275+P29274)", "PROPERTY MEASURED": "MPR", "READOUT NUMBER": 0.65}
{"MOLECULE": "CC(CCc1ccccc1)Nc1ncnc2c1ncn2C1O[C@H](CO)[C@@H](O)[C@H]1O (some centres undefined)", "STUDY TARGET": "Adenosine A2 receptor (UniProt P29275+P29274)", "PROPERTY MEASURED": "MPR", "READOUT NUMBER": 0.19}
{"MOLECULE": "C[C@@H](Nc1ncnc2c1ncn2[C@@H]1O[C@H](CO)[C@@H](O)[C@H]1O)c1ccccc1", "STUDY TARGET": "Adenosine A2 receptor (UniProt P29275+P29274)", "PROPERTY MEASURED": "MPR", "READOUT NUMBER": 0.52}
{"MOLECULE": "OC[C@H]1OC(n2cnc3c(NCc4ccc(Cl)c(Cl)c4)ncnc32)[C@H](O)[C@@H]1O (some centres undefined)", "STUDY TARGET": "Adenosine A2 receptor (UniProt P29275+P29274)", "PROPERTY MEASURED": "MPR", "READOUT NUMBER": 0.28}
{"MOLECULE": "OC[C@H]1OC(n2cnc3c(NCCc4cccnc4)ncnc32)[C@H](O)[C@@H]1O (some centres undefined)", "STUDY TARGET": "Adenosine A2 receptor (UniProt P29275+P29274)", "PROPERTY MEASURED": "MPR", "READOUT NUMBER": 3}

[1] OC[C@H]1OC(n2cnc3c(NCCc4ccsc4)ncnc32)[C@H](O)[C@@H]1O (some centres undefined)
[2] OC[C@H]1OC(n2cnc3c(NCCc4ccccn4)ncnc32)[C@H](O)[C@@H]1O (some centres undefined)
[3] OC[C@H]1OC(n2cnc3c(NCc4cccc(F)c4)ncnc32)[C@H](O)[C@@H]1O (some centres undefined)
[4] OC[C@H]1OC(n2cnc3c(NCCc4cccs4)ncnc32)[C@H](O)[C@@H]1O (some centres undefined)
Sort the molecules on MPR; start with the lowest figure. Please respond by ranking the labels in the order requested. 3, 2, 1, 4
(3: 0.08, 2: 1, 1: 2.5, 4: 4)

[A] OC[C@H]1OC(n2cnc3c(Nc4ccc(Cl)cc4)ncnc32)[C@H](O)[C@@H]1O (some centres undefined)
[B] COc1ccc(Nc2ncnc3c2ncn3[C@@H]2O[C@H](CO)[C@@H](O)[C@H]2O)cc1
[C] OC[C@H]1OC(n2cnc3c(NC4CCCC[C@H]4c4ccccc4)ncnc32)[C@H](O)[C@@H]1O (some centres undefined)
Please put the entries in order of rising MPR. List the labels in the requested order. A, C, B
(A: 0.94, C: 2.4, B: 3.5)

[a] OC[C@H]1OC(n2cnc3c(NCc4ccsc4)ncnc32)[C@H](O)[C@@H]1O (some centres undefined)
[b] OC[C@H]1OC(n2cnc3c(NCCc4ccccc4Cl)ncnc32)[C@H](O)[C@@H]1O (some centres undefined)
Between a and b , which one shows the larger MPR value? Please respond with the label that marks your chosen entry. b
(b: 0.67, a: 0.091)

* * *

EXPERIMENT DESCRIPTION: Index of hydrophobicity (k')
Assay type: ADME
PROPERTY MEASURED: k'

Some compounds with recorded k':
{"COMPOUND": "Cc1ccc(Nc2ncnc3c2ncn3C2O[C@H](CO)[C@@H](O)[C@H]2O)cc1 (stereo partly specified)", "k'": 3.28}
{"COMPOUND": "OC[C@H]1O[C@@H](n2cnc3c(NCCc4ccccc4)ncnc32)[C@H](O)[C@@H]1O", "k'": 1.77}
{"COMPOUND": "COc1cc(CCNc2ncnc3c2ncn3C2O[C@H](CO)[C@@H](O)[C@H]2O)cc(OC)c1OC (stereo partly specified)", "k'": 1.54}
{"COMPOUND": "Cc1ccccc1CNc1ncnc2c1ncn2[C@@H]1O[C@H](CO)[C@@H](O)[C@H]1O", "k'": 2.76}
{"COMPOUND": "COc1ccc(CNc2ncnc3c2ncn3[C@@H]2O[C@H](CO)[C@@H](O)[C@H]2O)cc1", "k'": 1.66}
{"COMPOUND": "OC[C@H]1OC(n2cnc3c(NCCc4c[nH]c5ccccc45)ncnc32)[C@H](O)[C@@H]1O (stereo partly specified)", "k'": 1.39}
{"COMPOUND": "OC[C@H]1OC(n2cnc3c(NCc4cccnc4)ncnc32)[C@H](O)[C@@H]1O (stereo partly specified)", "k'": 0.29}
{"COMPOUND": "OC[C@H]1O[C@@H](n2cnc3c(NCc4ccc(Cl)cc4)ncnc32)[C@H](O)[C@@H]1O", "k'": 3.44}

[1] OC[C@H]1O[C@@H](n2cnc3c(Nc4ccccc4)ncnc32)[C@H](O)[C@@H]1O [N6-PHENYLADENOSINE]
[2] OC[C@H]1OC(n2cnc3c(NCCc4ccccc4F)ncnc32)[C@H](O)[C@@H]1O (stereo partly specified)
From the items above, decide which of 1 and 2 has the lower k' reading. Write down the label of the entry you select. 1

[P] COc1ccc(CCCNc2ncnc3c2ncn3C2O[C@H](CO)[C@@H](O)[C@H]2O)cc1OC (stereo partly specified)
[Q] OC[C@H]1O[C@@H](n2cnc3c(NCc4ccccc4)ncnc32)[C@H](O)[C@@H]1O [N6-BENZYLADENOSINE]
[R] OC[C@H]1OC(n2cnc3c(NCc4ccc(Cl)c(Cl)c4)ncnc32)[C@H](O)[C@@H]1O (stereo partly specified)
[S] OC[C@H]1OC(n2cnc3c(NCCc4cnc5ccccc5c4)ncnc32)[C@H](O)[C@@H]1O (stereo partly specified)
List from greatest to least k'. In your reply, arrange the labels in the requested order. R, S, P, Q
(R: 7.12, S: 3.64, P: 2.05, Q: 1.21)
